Experiment: Cytotoxicity against human KATO III cells after 3 days by MTT assay
Assay type: functional, cell-based, KATO III cell
Details: 72 h
IC50 listing for selected molecules.
Observed Property: IC50 (µg/mL)

INSERT INTO assay_data (molecule, qualifying_sign, result_number) VALUES
  ('C=C(C)[C@@H]1CC[C@@H]2[C@]3(CC[C@]4(C)[C@@H]([C@H](C)CCC=C(C)C)CC[C@@]24C)C[C@]13CCC(=O)O [SOOTEPIN E]', '=', 1.91),
  ('C=C1C(=O)O[C@@H]2C[C@@H]3[C@]4(CC[C@]5(C)[C@@H]([C@H](C)CCC=C(C)C)CC[C@@]35C)C[C@]4(CCC(=O)OC)[C@H]12 [TUBIFEROLIDE METHYL ESTER]', '=', 4.9),
  ('C=C(CO)[C@@H]1CC[C@@H]2[C@]3(CC[C@]4(C)[C@@H]([C@H](C)CC/C=C(\C)C=O)CC[C@@]24C)C[C@]13CCC(=O)OC [SOOTEPIN D]', '=', 7.35),
  ('C=C1C(=O)O[C@@H]2C[C@@H]3[C@]4(CC[C@]5(C)[C@@H]([C@H](C)CCC=C(C)C)CC[C@@]35C)C[C@]4(CCC(=O)O)[C@H]12 [SOOTEPIN B]', '=', 3.68),
  ('C=C1C(=O)O[C@@H]2C[C@@H]3[C@]4(CC[C@]5(C)[C@@H]([C@H](C)CC/C=C(\C)CO)CC[C@@]35C)C[C@]4(CCC(=O)OC)[C@H]12 [SOOTEPIN A]', '=', 2.1),
  ('C=C(CO)[C@@H]1CC[C@H]2[C@]3(CC[C@]4(C)[C@@H]([C@H](C)CCC=C(C)C)CC[C@@]24C)C[C@]13CCC(=O)O', '>', 10),
  ('C=C1C(=O)O[C@H]2C[C@@H]3[C@@]4(CC[C@]5(C)[C@H]([C@@H](C)CC/C=C(\C)C=O)CC[C@@]35C)C[C@]4(CCC(=O)OC)[C@@H]12 [CORONALOLIDE METHYL ESTER]', '=', 8.64),
  ('C=C(CO)[C@@H]1CC[C@@H]2[C@]3(CC[C@]4(C)[C@@H]([C@H](C)CCC=C(C)C)CC[C@@]24C)C[C@]13CCC(=O)OC [SOOTEPIN C]', '=', 7.79),
  ('COc1cccc2c1C(=O)c1c(O)c3c(c(O)c1C2=O)C[C@@](O)(C(=O)CO)C[C@@H]3O[C@H]1C[C@H](N)[C@H](O)[C@H](C)O1', '=', 5.45),
  ('C=C1C(=O)O[C@@H]2C[C@@H]3[C@]4(CC[C@]5(C)[C@@H]([C@H](C)CC/C=C(\C)C=O)CC[C@@]35C)C[C@]4(CCC(=O)O)[C@H]12 [CORONALOLIDE]', '=', 5.85);
